# Test system: NCI/ADR-RES
# Protocol description: NCI tumour cell line growth inhibition, 48 h
Activity calls are given as the source filed them. Rule as the data show it: active = GI50 up to about 1.1 µM and inactive = higher.
Value kind: GI50

Here is how some compounds turned out for GI50.
* CC1SC2(CCCCC2)N(NC(=O)CSc2nc3ccc(Cl)cc3c(=O)n2-c2ccccc2)C1=O (centres undefined) | 22.1 µM (inactive)
* C/C(=N\O)C1CC2C=C(C#N)C1N(Cc1ccccc1)C2 (centres undefined) | > 100 µM (inactive)

Request: Identify the reported GI50 for the following entry. COc1ccc(-c2nc(-c3cnccn3)n(COCCO)n2)cc1
Response: > 100 µM (inactive)

Request: Tell me GI50 reported for N/C(=N/O)c1cn(C2OC(CO)C(O)C2O)c2ncnc(NO)c12 (centres undefined)
Response: 0.203 µM (active)

Origin of measurements: ChEMBL document CHEMBL1201862
